# assayed.system: FFpSPR
# test.summary: NMR titration
# condition.label: phospho-S3 of peptide
property.name: Kd (µM)

- ADEEKLPPGWEKRMSRSSGRVYYFNHITNASQWERPSGNSS [Pin1 (WW domain site, full-length Pin1) WW, Q13526]: 43
